Tested on: NCI-H2347
ASSAY SUMMARY: relative viability (nuclei count vs DMSO), 5 days (fraction); higher = more cells survive
RECORDED CONDITIONS: first compound 0.1581 µM
relative viability overview
Write no unit; give the number alone.

Some solved entries appear below for comparison.
COMPOUND	relative viability
COc1cc2nccc(Oc3ccc(NC(=O)Nc4cc(C)on4)c(Cl)c3)c2cc1OC [Tivozanib] + CS(=O)(=O)N1CCN(Cc2cc3nc(-c4cccc5[nH]ncc45)nc(N4CCOCC4)c3s2)CC1 [Pictilisib] (partner 1 µM)	0.344
Nc1ccn([C@@H]2O[C@H](CO)[C@@H](O)[C@@H]2O)c(=O)n1 [Cytarabine] + Cc1cc(Nc2cc(N3CCN(C)CC3)nc(Sc3ccc(NC(=O)C4CC4)cc3)n2)n[nH]1 [Tozasertib] (partner 0.1 µM)	0.52
Nc1ccn([C@@H]2O[C@H](CO)[C@@H](O)[C@@H]2O)c(=O)n1 [Cytarabine] + COc1cc2c(Oc3ccc(NC(=O)C4(C(=O)Nc5ccc(F)cc5)CC4)cc3F)ccnc2cc1OCCCN1CCOCC1 [Foretinib] (partner 0.25 µM)	0.463

Endpoint output: relative viability of Nc1ccn([C@@H]2O[C@H](CO)[C@@H](O)[C@@H]2O)c(=O)n1 [Cytarabine] + C[C@]1(O)C[C@@H](c2nc(-c3ccc4ccc(-c5ccccc5)nc4c3)c3c(N)nccn32)C1 [Linsitinib] (partner 1 µM) . Value?
0.32

---

Tested on: NCI-H358
ASSAY SUMMARY: relative viability (nuclei count vs DMSO), 5 days (fraction); higher = more cells survive
RECORDED CONDITIONS: first compound 0.253 µM
RECORDED METRIC: relative viability

Some solved entries appear below for comparison.
MOLECULE	TGT	MEASUREMENT
Cc1cnc(-c2cnc(NCCNc3ccc(C#N)cn3)nc2-c2ccc(Cl)cc2Cl)[nH]1 + COc1cc2c(Oc3ccc(NC(=O)C4(C(=O)Nc5ccc(F)cc5)CC4)cc3F)ccnc2cc1OCCCN1CCOCC1 [Foretinib] (partner 0.25 µM)	NCI-H358	0.597
Cc1cnc(-c2cnc(NCCNc3ccc(C#N)cn3)nc2-c2ccc(Cl)cc2Cl)[nH]1 + CS(=O)(=O)CCNCc1ccc(-c2ccc3ncnc(Nc4ccc(OCc5cccc(F)c5)c(Cl)c4)c3c2)o1 [Lapatinib] (partner 2 µM)	NCI-H358	0.49
Cc1cnc(-c2cnc(NCCNc3ccc(C#N)cn3)nc2-c2ccc(Cl)cc2Cl)[nH]1 + C[C@@H](Oc1cc(-c2cnn(C3CCNCC3)c2)cnc1N)c1c(Cl)ccc(F)c1Cl [Crizotinib] (partner 1 µM)	NCI-H358	0.548

Endpoint output: relative viability of O=c1[nH]c2ccccc2n1C1CCN(CCCC(c2ccc(F)cc2)c2ccc(F)cc2)CC1 [Pimozide] + CC(=O)Nc1cccc(-n2c(=O)n(C3CC3)c(=O)c3c(Nc4ccc(I)cc4F)n(C)c(=O)c(C)c32)c1 [Trametinib] (partner 0.02 µM) . Value?
0.147

---

Test system: HCC-15
ASSAY SUMMARY: relative viability (nuclei count vs DMSO), 5 days (fraction); higher = more cells survive
RECORDED CONDITIONS: first compound 0.08 µM
Classify: satisfied when relative viability is strictly less than 0.7; not satisfied when relative viability is not.

Example entries and their recorded answers appear below.
COMPOUND	QUALITATIVE LABEL
O=c1[nH]c2ccccc2n1C1CCN(CCCC(c2ccc(F)cc2)c2ccc(F)cc2)CC1 [Pimozide] + N=C(N)NC(=N)NCCc1ccccc1 [Phenformin] (partner 250 µM)	satisfied
O=c1[nH]c2ccccc2n1C1CCN(CCCC(c2ccc(F)cc2)c2ccc(F)cc2)CC1 [Pimozide] + CC(=O)c1c(C)c2cnc(Nc3ccc(N4CCNCC4)cn3)nc2n(C2CCCC2)c1=O [Palbociclib] (partner 0.5 µM)	not satisfied
Cc1cnc(-c2cnc(NCCNc3ccc(C#N)cn3)nc2-c2ccc(Cl)cc2Cl)[nH]1 + O=C(CCCCCCC(=O)Nc1ccccc1)NO [Vorinostat] (partner 1 µM)	not satisfied

Consider now this further compound.
In the record for Cc1cnc(-c2cnc(NCCNc3ccc(C#N)cn3)nc2-c2ccc(Cl)cc2Cl)[nH]1 + O=C(c1cc(Cc2n[nH]c(=O)c3ccccc23)ccc1F)N1CCN(C(=O)C2CC2)CC1 [Olaparib] (partner 8 µM) , is relative viability less than 0.7?
not satisfied
